- target-or-system: CRF-RB1 (Mus musculus, UniProt Q60748)
- Construct: The full-length CRF-RB1 receptor cDNA was subcloned into the expression vector pcDNA1; expressed in transfected cells; host or cells: COSM6 cells, DEAE-dextran transient transfection of pCRF-RB1
- Sequence (Q60748 1-431 isoform Q60748-2): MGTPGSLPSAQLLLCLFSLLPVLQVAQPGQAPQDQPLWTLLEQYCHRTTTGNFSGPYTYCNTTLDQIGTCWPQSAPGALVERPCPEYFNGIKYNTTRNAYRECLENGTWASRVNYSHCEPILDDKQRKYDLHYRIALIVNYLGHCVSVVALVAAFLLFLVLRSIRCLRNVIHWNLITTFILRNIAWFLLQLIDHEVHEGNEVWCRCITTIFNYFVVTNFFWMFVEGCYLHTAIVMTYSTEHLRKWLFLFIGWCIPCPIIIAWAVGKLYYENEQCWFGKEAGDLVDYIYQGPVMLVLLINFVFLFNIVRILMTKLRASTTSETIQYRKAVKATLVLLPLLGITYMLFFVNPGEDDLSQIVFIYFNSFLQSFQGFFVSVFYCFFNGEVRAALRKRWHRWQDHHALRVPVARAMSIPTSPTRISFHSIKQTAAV
- procedure-text: Competitive displacement of 125I-(Nle21,Tyr32)-ovine CRF from membranes of COSM6 cells transfected with pCRF-RB1
- Type: binding
- assay-conditions: on CRF-RB
No end group written: not given here.
property-measured: pKi
Just the number, please; pKi means minus log10 of the concentration in mol/L.

Endpoint output: pKi of NDDPPISIDLTFHLLRNMIEMARIENEREQAGLNRKYLDEV-NH2 (C-terminus assumed) [urotensin] . Value?
9.15

Provenance of the data: patent US6638905B2
